Molecular target: hDLG1 PDZ2 domain (human)
Assay: ITC
recorded-metric: Kd (nM)
// units = nM; emit number, no label

Query string: Item SEKHFRETEV [Tax-1 10mer peptide (last 10 C-terminal amino acids of Tax-1)] has what recorded Kd?
Result string: 900
